Taken from ChEMBL document CHEMBL1671833.

# experimentSummary: Mean residence time in Sprague-Dawley rat at 3.6 umol/kg, po and 2.4 umol/kg, iv
# Assay type: ADME, organism-based
# testContext: in vivo
endpoint: MRT (h)
Give just the number in h; leave the unit off.

Output measured MRT for this item: CCCn1c(-c2cnc(Nc3ccc(C)nc3)c(Cl)c2)nc2cccc(Cl)c21
2.2

---

# experimentSummary: Plasma clearance in Sprague-Dawley rat at 3.6 umol/kg, po and 2.4 umol/kg, iv
# Format: ADME, organism-based
endpoint: clearance (mL/min/kg)
Give just the number in mL/min/kg; leave the unit off.

Output measured clearance for this item: CCCn1c(-c2cnc(Nc3ccc(C)nc3)c(Cl)c2)nc2cccc(Cl)c21
15

---

# studySystem: Metabotropic glutamate receptor 1 (Homo sapiens)
# Sequence (Q13255 whole entry): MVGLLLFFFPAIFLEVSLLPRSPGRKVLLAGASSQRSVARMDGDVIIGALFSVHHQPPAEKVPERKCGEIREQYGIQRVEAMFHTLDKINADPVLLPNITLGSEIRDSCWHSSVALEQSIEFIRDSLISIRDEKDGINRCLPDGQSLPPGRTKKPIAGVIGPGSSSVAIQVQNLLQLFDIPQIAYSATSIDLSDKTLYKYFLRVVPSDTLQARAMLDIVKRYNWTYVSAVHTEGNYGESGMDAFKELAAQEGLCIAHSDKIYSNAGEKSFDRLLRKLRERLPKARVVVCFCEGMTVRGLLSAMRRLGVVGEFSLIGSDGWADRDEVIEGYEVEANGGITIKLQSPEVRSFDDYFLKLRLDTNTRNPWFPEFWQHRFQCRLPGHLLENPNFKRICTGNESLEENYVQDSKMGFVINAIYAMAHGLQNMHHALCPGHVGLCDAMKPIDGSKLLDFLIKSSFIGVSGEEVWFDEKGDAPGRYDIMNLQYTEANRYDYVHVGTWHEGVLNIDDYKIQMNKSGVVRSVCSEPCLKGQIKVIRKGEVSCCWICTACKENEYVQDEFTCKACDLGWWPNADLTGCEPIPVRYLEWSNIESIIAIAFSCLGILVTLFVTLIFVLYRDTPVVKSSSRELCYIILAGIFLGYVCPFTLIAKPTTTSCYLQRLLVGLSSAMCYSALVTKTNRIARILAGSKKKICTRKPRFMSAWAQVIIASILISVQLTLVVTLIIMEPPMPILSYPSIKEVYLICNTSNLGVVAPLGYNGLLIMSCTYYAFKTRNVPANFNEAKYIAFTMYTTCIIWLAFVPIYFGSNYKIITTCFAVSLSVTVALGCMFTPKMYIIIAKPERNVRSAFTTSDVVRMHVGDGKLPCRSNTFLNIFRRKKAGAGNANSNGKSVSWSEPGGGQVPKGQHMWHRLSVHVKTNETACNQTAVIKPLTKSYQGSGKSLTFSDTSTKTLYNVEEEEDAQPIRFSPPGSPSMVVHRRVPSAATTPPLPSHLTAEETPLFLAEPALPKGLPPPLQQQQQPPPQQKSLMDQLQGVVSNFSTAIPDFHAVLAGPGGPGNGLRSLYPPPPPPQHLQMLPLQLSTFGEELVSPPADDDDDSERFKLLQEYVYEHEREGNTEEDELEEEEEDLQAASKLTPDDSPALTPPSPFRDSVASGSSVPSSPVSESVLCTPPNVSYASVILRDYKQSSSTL
# experimentSummary: Antagonist activity at mGlu1 receptor
endpoint: IC50

Provide IC50, tested on Metabotropic glutamate receptor 1 (Homo sapiens), for CCCn1c(-c2cnc(Nc3ccc(C)nc3)c(Cl)c2)nc2cccc(Cl)c21 .
> 10 µM

---

# experimentSummary: Tmax in Sprague-Dawley rat at 3.6 umol/kg, po and 2.4 umol/kg, iv
# Format: ADME, organism-based
# testContext: in vivo
endpoint: Tmax (min)
Give just the number in min; leave the unit off.

Output measured Tmax for this item: CCCn1c(-c2cnc(Nc3ccc(C)nc3)c(Cl)c2)nc2cccc(Cl)c21
30
